For each record, write down the corresponding pIC50.
- target_under_test: Neuropeptide Y receptor type 5 (Homo sapiens, UniProt Q15761)
- test_name: Displacement of [125I]PYY from human recombinant neuropeptide Y5 receptor expressed in thymidine kinase-deficient mouse LM cells
- Assay type: cell-based
Reminder that pIC50 is minus the log10 of a molar concentration.

Item: `Fc1ccc(C2(c3ccc(F)cc3)CNC(c3ccccn3)=N2)cc1` Test system: Neuropeptide Y receptor type 5 (Homo sapiens, UniProt Q15761) Read-out: pIC50 Value: ?
6.80

Item: `Fc1ccc(C2(c3ccc(F)cc3)CNC(c3ncccn3)=N2)cc1` Test system: Neuropeptide Y receptor type 5 (Homo sapiens, UniProt Q15761) Read-out: pIC50 Value: ?
6.46

Item: `N#Cc1ccnc(C2=NC(c3ccc(F)cc3)(c3ccc(F)cc3)CN2)c1` Test system: Neuropeptide Y receptor type 5 (Homo sapiens, UniProt Q15761) Read-out: pIC50 Value: ?
8.70

Item: `COc1cccc(C2=NC(c3ccc(F)cc3)(c3ccc(F)cc3)CN2)c1` Test system: Neuropeptide Y receptor type 5 (Homo sapiens, UniProt Q15761) Read-out: pIC50 Value: ?
7.29

Item: `Fc1ccc(C2(c3ccc(F)cc3)CNC(c3cccnc3)=N2)cc1` Test system: Neuropeptide Y receptor type 5 (Homo sapiens, UniProt Q15761) Read-out: pIC50 Value: ?
8.14

Item: `Fc1ccc(C2(c3ccc(F)cc3)CNC(c3cccnn3)=N2)cc1` Test system: Neuropeptide Y receptor type 5 (Homo sapiens, UniProt Q15761) Read-out: pIC50 Value: ?
6.25

Item: `N#Cc1cc(C2=NC(c3ccc(F)cc3)(c3ccc(F)cc3)CN2)ccn1` Test system: Neuropeptide Y receptor type 5 (Homo sapiens, UniProt Q15761) Read-out: pIC50 Value: ?
8.32

Item: `Fc1ccc(C2(c3ccc(F)cc3)CNC(c3ccccc3Cl)=N2)cc1` Test system: Neuropeptide Y receptor type 5 (Homo sapiens, UniProt Q15761) Read-out: pIC50 Value: ?
6.20

Item: `CC(=O)c1cccc(C2=NC(c3ccc(F)cc3)(c3ccc(F)cc3)CN2)c1` Test system: Neuropeptide Y receptor type 5 (Homo sapiens, UniProt Q15761) Read-out: pIC50 Value: ?
7.36

Item: `Fc1ccc(C2(c3ccc(F)cc3)CNC(c3cncnc3)=N2)cc1` Test system: Neuropeptide Y receptor type 5 (Homo sapiens, UniProt Q15761) Read-out: pIC50 Value: ?
7.33

Item: `Nc1cccc(C2=NC(c3ccc(F)cc3)(c3ccc(F)cc3)CN2)c1` Test system: Neuropeptide Y receptor type 5 (Homo sapiens, UniProt Q15761) Read-out: pIC50 Value: ?
6.52

Item: `O=Cc1cccc(C2=NC(c3ccc(F)cc3)(c3ccc(F)cc3)CN2)c1` Test system: Neuropeptide Y receptor type 5 (Homo sapiens, UniProt Q15761) Read-out: pIC50 Value: ?
8.06

Item: `O=c1cccc(C2=NC(c3ccc(F)cc3)(c3ccc(F)cc3)CN2)[nH]1` Test system: Neuropeptide Y receptor type 5 (Homo sapiens, UniProt Q15761) Read-out: pIC50 Value: ?
8.09

Item: `COC(=O)c1cccc(C2=NC(c3ccc(F)cc3)(c3ccc(F)cc3)CN2)c1` Test system: Neuropeptide Y receptor type 5 (Homo sapiens, UniProt Q15761) Read-out: pIC50 Value: ?
6.57

Item: `N#Cc1cccc(C2=NC(c3ccc(F)cc3)(c3ccc(F)cc3)CN2)n1` Test system: Neuropeptide Y receptor type 5 (Homo sapiens, UniProt Q15761) Read-out: pIC50 Value: ?
7.41

Item: `Fc1ccc(C2(c3ccc(F)cc3)CNC(c3cccc(Cl)c3)=N2)cc1` Test system: Neuropeptide Y receptor type 5 (Homo sapiens, UniProt Q15761) Read-out: pIC50 Value: ?
8.27

Item: `CS(=O)(=O)c1cccc(C2=NC(c3ccc(F)cc3)(c3ccc(F)cc3)CN2)c1` Test system: Neuropeptide Y receptor type 5 (Homo sapiens, UniProt Q15761) Read-out: pIC50 Value: ?
8.04

Item: `Fc1ccc(C2(c3ccc(F)cc3)CNC(c3ccc(Cl)cc3)=N2)cc1` Test system: Neuropeptide Y receptor type 5 (Homo sapiens, UniProt Q15761) Read-out: pIC50 Value: ?
6.89

Item: `Fc1ccc(C2(c3ccc(F)cc3)CNC(c3ccc(C(F)(F)F)cc3)=N2)cc1` Test system: Neuropeptide Y receptor type 5 (Homo sapiens, UniProt Q15761) Read-out: pIC50 Value: ?
6.80

Item: `Fc1ccc(C2(c3ccc(F)cc3)CNC(c3cnccn3)=N2)cc1` Test system: Neuropeptide Y receptor type 5 (Homo sapiens, UniProt Q15761) Read-out: pIC50 Value: ?
8.37

Item: `Fc1ccc(C2(c3ccc(F)cc3)CNC(c3ccccc3)=N2)cc1` Test system: Neuropeptide Y receptor type 5 (Homo sapiens, UniProt Q15761) Read-out: pIC50 Value: ?
7.49

Item: `Cc1cccc(C2=NC(c3ccc(F)cc3)(c3ccc(F)cc3)CN2)c1` Test system: Neuropeptide Y receptor type 5 (Homo sapiens, UniProt Q15761) Read-out: pIC50 Value: ?
7.52

Item: `Fc1ccc(C2(c3ccc(F)cc3)CNC(c3cccs3)=N2)cc1` Test system: Neuropeptide Y receptor type 5 (Homo sapiens, UniProt Q15761) Read-out: pIC50 Value: ?
7.27

Item: `O=[N+]([O-])c1cccc(C2=NC(c3ccc(F)cc3)(c3ccc(F)cc3)CN2)c1` Test system: Neuropeptide Y receptor type 5 (Homo sapiens, UniProt Q15761) Read-out: pIC50 Value: ?
8.37

Item: `Fc1ccc(C2(c3ccc(F)cc3)CNC(c3cccc(Br)c3)=N2)cc1` Test system: Neuropeptide Y receptor type 5 (Homo sapiens, UniProt Q15761) Read-out: pIC50 Value: ?
8.32

Item: `c1ccc(C2=NC(c3ccccc3)(c3ccccc3)CN2)cc1` Test system: Neuropeptide Y receptor type 5 (Homo sapiens, UniProt Q15761) Read-out: pIC50 Value: ?
7.27

Item: `N#Cc1cccc(C2=NC(c3ccc(F)cc3)(c3ccc(F)cc3)CN2)c1` Test system: Neuropeptide Y receptor type 5 (Homo sapiens, UniProt Q15761) Read-out: pIC50 Value: ?
8.57

Item: `OCc1cccc(C2=NC(c3ccc(F)cc3)(c3ccc(F)cc3)CN2)c1` Test system: Neuropeptide Y receptor type 5 (Homo sapiens, UniProt Q15761) Read-out: pIC50 Value: ?
7.23

Item: `N#Cc1cncc(C2=NC(c3ccc(F)cc3)(c3ccc(F)cc3)CN2)c1` Test system: Neuropeptide Y receptor type 5 (Homo sapiens, UniProt Q15761) Read-out: pIC50 Value: ?
7.77

Item: `Fc1ccc(C2(c3ccc(F)cc3)CNC(c3ccsc3)=N2)cc1` Test system: Neuropeptide Y receptor type 5 (Homo sapiens, UniProt Q15761) Read-out: pIC50 Value: ?
7.03

Item: `Fc1ccc(C2(c3ccc(F)cc3)CNC(c3cccc(F)c3)=N2)cc1` Test system: Neuropeptide Y receptor type 5 (Homo sapiens, UniProt Q15761) Read-out: pIC50 Value: ?
8.00

Item: `Fc1ccc(C2(c3ccc(F)cc3)CNC(c3ccncc3)=N2)cc1` Test system: Neuropeptide Y receptor type 5 (Homo sapiens, UniProt Q15761) Read-out: pIC50 Value: ?
6.80

Item: `Fc1ccc(C2(c3ccc(F)cc3)CNC(c3cccc(C(F)(F)F)c3)=N2)cc1` Test system: Neuropeptide Y receptor type 5 (Homo sapiens, UniProt Q15761) Read-out: pIC50 Value: ?
8.21

* * *

For each record, write down the corresponding concentration at 2 h.
- test_name: Plasma concentration in Sprague-Dawley rat at 10 mg/kg, po after 2 hrs
- Format: ADME, organism-based
- Set-up: dose 10 mg/kg, route oral
Dear colleague, please return just the value in nM, with no unit written.

I'd like to know its concentration at 2 h. The compound in question is `N#Cc1cccc(C2=NC(c3ccc(F)cc3)(c3ccc(F)cc3)CN2)c1`
1400

I'd like to know its concentration at 2 h. The compound in question is `N#Cc1ccnc(C2=NC(c3ccc(F)cc3)(c3ccc(F)cc3)CN2)c1`
1300

I'd like to know its concentration at 2 h. The compound in question is `Fc1ccc(C2(c3ccc(F)cc3)CNC(c3cnccn3)=N2)cc1`
1200

* * *

- target_under_test: Neuropeptide Y receptor type 5 (Homo sapiens)
- Sequence (Q15761 whole entry): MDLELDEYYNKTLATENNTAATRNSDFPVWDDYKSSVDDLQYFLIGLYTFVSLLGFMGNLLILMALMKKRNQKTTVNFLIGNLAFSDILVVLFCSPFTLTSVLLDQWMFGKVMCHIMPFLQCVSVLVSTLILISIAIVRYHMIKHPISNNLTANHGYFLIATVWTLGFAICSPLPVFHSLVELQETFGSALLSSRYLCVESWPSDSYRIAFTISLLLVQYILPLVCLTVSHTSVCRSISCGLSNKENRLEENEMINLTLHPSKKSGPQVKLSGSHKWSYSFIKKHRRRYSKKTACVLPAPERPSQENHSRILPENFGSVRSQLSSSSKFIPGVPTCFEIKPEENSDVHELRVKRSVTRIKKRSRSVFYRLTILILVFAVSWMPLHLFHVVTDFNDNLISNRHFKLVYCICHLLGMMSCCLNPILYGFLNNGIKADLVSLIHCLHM
- test_name: Antagonist activity at human recombinant neuropeptide Y5 receptor expressed in thymidine kinase-deficient mouse LM cells assessed as inhibition of neuropeptide-induced increase in intracellular calcium level
- Format: functional, cell-based
metric: pIC50
Reminder that pIC50 is minus the log10 of a molar concentration.

I'd like to know its pIC50. The compound in question is `Fc1ccc(C2(c3ccc(F)cc3)CNC(c3cnccn3)=N2)cc1`
8.62
